Sourced from patent US20240173329A1

Assay: Pharmacokinetic profile and brain distribution in mice after oral administration
Format: in vivo, mice (ICR)
Details: male, ICR (CD-1), mouse, oral 15 mg/kg, plasma

compound	Cmax
Cc1ccc2c(Nc3cccc(Cl)c3F)nccc2c1NC(=O)c1csc2c(N)ncnc12 [Belvarafenib]	4780 ng/mL

###

Assay: Pharmacokinetic profile and brain distribution in mice after oral administration
Type: in vivo, mice (ICR)
Conditions: male, ICR (CD-1), mouse, oral 15 mg/kg, brain
Procedure: Example 1 evaluated pharmacokinetic profile and brain distribution of belvarafenib in mice after oral administration. The mouse strain was ICR (CD-1®) supplied by Orient Bio Inc., Korea. […] In a single one day dosing regimen, mice were fasted overnight. The body weight of the mice was measured on the day of treatment, from which dosing volumes were set. […] Plasma and brain concentrations of belvarafenib determined by analysis using LC-MS/MS (Waters UPLC H-Class/Xevo TQ (Waters USA)). […]
reported.metric: half-life

molecule	endpoint.value
Cc1ccc2c(Nc3cccc(Cl)c3F)nccc2c1NC(=O)c1csc2c(N)ncnc12 [Belvarafenib]	6.3 h
